Literature pKi values, system: Coagulation factor X (Homo sapiens).
Just the number, please; pKi means minus log10 of the concentration in mol/L.

# annotated cases, reported pKi shown
LINE NOTATION	pKi
N=C(N)c1cccc(N2CCCCN(C3CCN(Cc4ccccn4)CC3)C2=O)c1	7.92
N=C(N)c1cccc(C[C@H](NS(=O)(=O)c2cccc(NC(=O)CCN)c2)C(=O)N2CCC(NC(=O)NCc3ccccc3)CC2)c1	5.61
N=C(N)c1cccc(CN2CC[C@H](NS(=O)(=O)c3ccc(-c4ccccn4)s3)C2=O)c1	6.85

Notebook entry, Coagulation factor X (Homo sapiens) assay: pKi of `COc1ccc(-n2nc(C)cc2C(=O)Nc2ccc(-c3ccccc3S(N)(=O)=O)cc2)c(CN)c1` = ?
8.42

----------
Literature Ki values, system: UniProtKB P00742.
Please respond with the number in nM and leave the unit unwritten.

MOLECULE	Ki, nM
CS(=O)(=O)Cc1csc(C(=O)Nc2ccc(Cl)cc2C(=O)Nc2ccc(Cl)cc2)c1Cl	2.1
CS(=O)(=O)c1ccccc1-c1ccc(NC(=O)c2conc2-c2cccc(C(=N)N)c2)cc1	0.1
COC(=O)Nc1ccc(-c2ccnc([C@H](Cc3ccccc3)NC(=O)/C=C/c3cc(Cl)ccc3-n3cnnn3)c2)cc1	1130

I'd like to know its Ki. The molecule in question is `N=C(N)c1cccc(Cn2c(C(=O)NCc3cccc(F)c3)cc3c(O)cccc32)c1`
720

Now consider `N=C(N)c1cccc(Oc2cc(C(N)=O)cc(Oc3cccc(C(=N)N)c3)n2)c1` .
42

Now consider `N=C(N)c1cccc(-c2noc(N)c2C(=O)Nc2ccc(-c3ccccc3S(N)(=O)=O)cc2)c1` .
3.4

Now consider `CC(C)(C)OC(=O)CCc1nc(Cc2ccccc2)n(CC(=O)N[C@@H](CCCCN)B2O[C@@H]3C[C@@H]4C[C@@H](C4(C)C)[C@]3(C)O2)n1` .
760

Now consider CCOC(=O)C(Oc1ccc2c(c1)CN(C(=N)N)CC2)c1ccc(O[C@H]2CCN(C(=N)N)C2)cc1 (stereo partly specified) .
200

----------
Literature Ki values, system: Coagulation factor X (Homo sapiens, UniProt P00742).
Categories are defined by ranges of Ki, namely Low: < 0.05 µM; Mid: ≥ 0.05 µM and < 10 µM; High: ≥ 10 µM

# example entries with known answers
COMPOUND	CAT
COC(=O)[C@@H]1CCCCN1C(=O)[C@H](Cc1cccc(C(=N)N)c1)NS(=O)(=O)c1cccc(NC(=O)CCN)c1	High
NCc1cccc(-n2nc(C(F)(F)F)cc2C(=O)Nc2ccc(-c3ccccc3S(N)(=O)=O)cc2F)c1	Low
N=C(N)c1ccc2scc([C@@H](Cc3ccccc3)C(=O)Nc3ccc4ncsc4c3)c2c1	Mid
N=C(N)c1ccc(CN(NS(=O)(=O)c2ccc3ccccc3c2)C(=O)N2CCCCCC2)cc1	High
CC(=N)NCc1cccc(-c2ccc(C(=O)Nc3ccc(Cl)cc3C(=O)Nc3ccc(Cl)cn3)cc2)c1	Low
CC(C)CNc1nc(Cl)c2n(c1=O)[C@H](C(=O)NCc1ccc(C(=N)N)cc1)CC2(C)C	High
N=C(N)c1cccc(C[C@H](NS(=O)(=O)c2ccc3ccccc3c2)C(=O)N2CCC(CCCN)CC2)c1	High
CCCCS(=O)(=O)N[C@H](Cc1ccccc1)C(=O)N1CCC[C@H]1C(=O)N[C@@H](CCCn1ccnc1[N+](=O)[O-])B1O[C@@H]2CC3CC(C3(C)C)[C@]2(C)O1 (stereo partly specified)	Mid

Where would `CN(CCO)Cc1csc(C(=O)Nc2ccc(Cl)cc2C(=O)Nc2ccc(Cl)cc2)c1Cl` land among the classes by reported Ki?
Low

Now consider CC(C)(CN(CC(=O)NC(CCCCN)B(O)O)C(=O)CCc1ccccc1)c1ccccc1 (stereo unspecified) .
Mid

Now consider CCOC(=O)CN(Cc1ccc(F)c(F)c1)c1ccc2c(c1)N(C)CC(C)(COc1ccc(C(=N)N)cc1)O2 (stereo unspecified) .
Mid

----------
Literature Ki values, system: Coagulation factor X (Homo sapiens).
// NB: equality with 0.8 µM counts as N; only Ki strictly below is Y

# example entries with known answers
COMPOUND	CAT
CCOC(=O)c1nn(-c2ccc(OC)cc2)c2c1CCN(c1ccc(-c3ccccc3CN3CC[C@@H](O)C3)cc1)C2=O	Y
CC(C)OC(=O)[C@@H]1CN(Cc2ccc(-c3ccccc3S(N)(=O)=O)cc2)O[C@H]1c1cccc(C(=N)N)c1.O=C(O)C(F)(F)F.O=C(O)C(F)(F)F	Y
O=C(Nc1cccc(OCc2ccc(C(F)(F)F)cc2)c1)C1CCN(c2ccncc2)CC1	N
O=C(Nc1ccc(Cl)cc1)c1cc(Cl)ccc1NC(=O)c1scc(CN2CCOCC2)c1Cl	Y

Quick check: does `Cc1cc2ccc1[C@@H](C)COC(=O)Nc1ccc(C3(C(=O)O)CCCC3)c(c1)CN(C)C(=O)[C@@H]2Nc1ccc2c(N)ncc(F)c2c1` have Ki under 0.8 µM?
N

Now consider CS(=O)(=O)c1ccccc1-c1ccc(N2CCCC(NS(=O)(=O)c3ccc(C#N)cc3)C2=O)c(F)c1 (configuration not stated) .
Y

Now consider N=C(N)c1cc2c(OC(COC(=O)Nc3ccccc3)c3ccccc3)cccc2s1 (configuration not stated) .
N

Now consider `CN(C)Cc1ccc(COc2cccc(NC(=O)C3CCN(c4ccncc4)CC3)c2)cc1` .
N

Now consider N=C(N)c1cccc(CC(NS(=O)(=O)c2cccc(-c3ccccc3Cl)c2)C(=O)N2CCC(CCN)CC2)c1 (racemic) .
Y

Now consider `Cc1cccc2c(C#N)c(C(=O)NC3CCN(C(C)C)CC3)n(CC(=O)Nc3ccc(Cl)cc3)c12` .
Y

Now consider `CCOC(=O)[C@]1(C)CN(Cc2ccc(-c3ccccc3S(N)(=O)=O)cc2)C[C@H]1c1cccc(C(=N)N)c1` .
Y

----------
Literature pKi values, system: Coagulation factor X (Homo sapiens, UniProt P00742).
Just the number, please; pKi means minus log10 of the concentration in mol/L.

# annotated cases, reported pKi shown
COMPOUND	READOUT NUMBER
N=C(N)c1ccc2scc(C(Cc3ccccc3)C(=O)Nc3ccc(-n4ccc(C(F)(F)F)n4)cc3)c2c1 (stereo unspecified)	6.39
N=C(N)c1cccc(CC(NS(=O)(=O)c2cccc(-c3ccccc3)c2)C(=O)N2CCC(CCN)CC2)c1 (racemic)	5.27
CC(C)N1CCC(NC(=O)c2c(C#N)c3cc(S(C)(=O)=O)ccc3n2Cc2cc(-c3ccc(Cl)s3)on2)CC1	8.15
CS(=O)(=O)c1ccccc1-c1ccc(N2CCCC(NS(=O)(=O)c3cccc(Cl)c3)C2=O)c(F)c1 (stereo unspecified)	6.42
COc1cccc2c1cc(C(=O)NC(c1ccccc1)c1ccncc1)n2Cc1cccc(C(=N)N)c1 (stereo unspecified)	5.17

I'd like to know its pKi. The compound in question is `CCOC(=O)C(=O)N(Cc1ccccc1)c1ccc2c(c1)O[C@@H](COc1ccc(C(=N)N)cc1)CO2.O=C(O)C(F)(F)F`
5.57

Now consider `COC(=O)[C@H](Cc1cccc(C(=N)N)c1)[C@@H](C)NC(=O)c1ccc(-c2ccc(C(N)=O)cc2)cc1` .
8.70

Now consider CCOc1cc(C(Nc2ccc3c(N)nccc3c2)C(=O)NS(=O)(=O)c2ccc(C)cc2)ccc1OC(C)C (stereo unspecified) .
5.52

Now consider `O=C1OC[C@@H](O)[C@H]([C@@H]2OC(=O)c3cc(O)c(O)c(O)c3-c3c(O)c(O)c(O)c4c3C(=O)O[C@H]2[C@@H]4O)OC(=O)c2cc(O)c(O)c(O)c2-c2c1cc(O)c(O)c2O` .
6.35

Now consider `N=C(N)c1cccc(Cn2c(C(=O)NNS(=O)(=O)c3ccccc3)cc3c(O)cccc32)c1` .
5.15

Now consider `Cc1c(F)c(Oc2cccc(CO)c2)nc(Oc2cccc(C(=N)N)c2)c1F` .
5.89

Now consider `CCOc1ccc2ccc(S(=O)(=O)N[C@H]3CCN(Cc4cccc(C(=N)N)c4)C3=O)cc2c1` .
6.55

Now consider `Cc1cc(C(=O)Nc2ccc(-c3ccccc3S(N)(=O)=O)cc2)n(-c2ccc(N)nc2)n1` .
5.89

----------
pKi: −log10 of the molar value.
Literature pKi values, system: Coagulation factor X (Homo sapiens).
The threshold is inclusive: pKi of exactly 7 counts as 1.0; values below receive 0.0.

# example entries with known answers
MOLECULE	CAT
COc1ccc(-n2nc(C(N)=O)cc2C(=O)Cc2ccc(-n3ccccc3=O)cc2F)cc1	1.0
CNC(=O)CCCC1CCN(C(=O)[C@H](Cc2cccc(C(=N)N)c2)NS(=O)(=O)c2cccc(-c3cccc(F)c3)c2)CC1	0.0

Please tell me: is the molecule `N=C(N)c1ccc(O)c(CCCNC(=O)c2ccc(-c3cccnc3)cc2)c1` at or over 7 in terms of pKi?
1.0

Now consider `CCc1ccc2ccc(S(=O)(=O)N[C@H]3CCN(Cc4cccc(C(=N)N)c4)C3=O)cc2c1` .
0.0

Now consider `N=C(N)c1ccc(CNC(=O)[C@@H]2Cc3ccc(cc3)NC(=O)CN3CCN(CC3)CC(=O)Nc3cccc(c3)C[C@@H](NS(=O)(=O)Cc3ccccc3)C(=O)N2)cc1` .
0.0

Now consider `C[N+](C)(C)c1ccc(CNC(=O)c2cc3c(Br)cccc3n2Cc2cccc(C(=N)N)c2)cc1` .
1.0

Now consider CCCS(=O)(=O)Nc1ccc(C)n(CC(=O)NC2CCc3nc(N)sc3C2)c1=O (stereo not drawn) .
0.0

Now consider `CN1CCN(Cc2ccc3c(Cl)c(C(=O)Nc4ccc(Cl)cc4C(=O)Nc4ccc(Cl)cc4)sc3c2)CC1` .
1.0

Now consider `Cc1cc(C(=O)Nc2ccc(N3CCOCC3=O)cc2F)n(-c2ccc3cc(Cl)ccc3c2)n1` .
1.0

Now consider `N=C(N)NCCC(=O)N1CCN(C(=O)[C@H](Cc2cccc(C(=N)N)c2)NS(=O)(=O)c2ccc(C3CCCCC3)cc2)CC1` .
0.0

Now consider `CN1CCN(Cc2csc(C(=O)Nc3ccc(Cl)cc3C(=O)Nc3ccc(Cl)cc3)c2Cl)CC1` .
1.0
